Assay: in vitro
Details: human, CC50 (Neutral Red)
Listed here: items and their measured CC50.
Write the number in µM without appending the unit.

> print(dat)
                                   compound  unit.abbrev  result.number
1  O=C1[C@H](CC[C@H](O)c2ccc(F)cc2)[C@@H](c2ccc(O)cc2)N1c1ccc(F)cc1 [Ezetimibe]           µM             29

For the next question, use this compound.
QUERY: Requested field: CC50. Item: Fc1ccc([C@@H]2CCNC[C@H]2COc2ccc3c(c2)OCO3)cc1 [Paroxetine]
RESULT: 3.1

* * *

Listed here: items and their measured EC50.
Tested on: YFV 17D strain
Experiment: microbe, parasite or virus in culture
Assay type: cell-based, yellow fever virus
Conditions: Yellow fever virus, Huh-7, read-out: EC50 (Neutral Red)

> print(dat)
                                   compound  metric    result
1  O=C1[C@H](CC[C@H](O)c2ccc(F)cc2)[C@@H](c2ccc(O)cc2)N1c1ccc(F)cc1 [Ezetimibe]    EC50   > 29 µM
2  Oc1ccc(-c2nc(-c3ccncc3)c(-c3ccc(F)cc3)[nH]2)cc1 [SB202190]    EC50  > 100 µM
3  Fc1ccc([C@@H]2CCNC[C@H]2COc2ccc3c(c2)OCO3)cc1 [Paroxetine]    EC50  > 3.1 µM

For the next question, use this compound.
QUERY: Requested field: EC50. Item: CCn1nc(C(=O)O)c(=O)c2cc3c(cc21)OCO3 [Cinoxacin]
RESULT: > 100 µM
